molecular target: T1, fXa (UniProt P00742 41-179; P00742 235-488); assay: pseudo-first-order inhibition kinetics, residual chromogenic activity (S2222)
T1 construct: also called factor Xa
T1 sequence (P00742 41-179 limits assumed, form in doubt, chain 1 of 2): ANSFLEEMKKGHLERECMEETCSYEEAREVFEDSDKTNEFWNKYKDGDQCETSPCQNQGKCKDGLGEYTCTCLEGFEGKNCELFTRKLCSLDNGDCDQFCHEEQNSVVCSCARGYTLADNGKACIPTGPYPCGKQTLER
T1 sequence (P00742 235-488 limits assumed, form in doubt, chain 2 of 2): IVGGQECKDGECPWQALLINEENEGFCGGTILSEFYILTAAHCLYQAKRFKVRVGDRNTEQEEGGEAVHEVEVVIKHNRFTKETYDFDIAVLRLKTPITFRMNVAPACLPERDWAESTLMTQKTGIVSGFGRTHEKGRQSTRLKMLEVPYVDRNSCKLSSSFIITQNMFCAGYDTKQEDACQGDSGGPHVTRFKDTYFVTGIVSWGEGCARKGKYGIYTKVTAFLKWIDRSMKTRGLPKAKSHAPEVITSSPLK
QUANTITY NAME: second-order rate constant of inhibition

BINDER | QUANTITY NAME | TEST RESULT
FL α1AT Pitts C232S P2K (other, E. coli, SUMO tag removed; also called P2K α1AT Pitts; P2.G11) SDPQGDAAQKTDTSHHDQDHPTFNKITPNLAEFAFSLYRQLAHQSNSTNIFFSPVSIATAFAMLSLGTKADTHDEILEGLNFNLTEIPEAQIHEGFQELLRTLNQPDSQLQLTTGNGLFLSEGLKLVDKFLEDVKKLYHSEAFTVNFGDTEEAKKQINDYVEKGTQGKIVDLVKELDRDTVFALVNYIFFKGKWERPFEVKDTEEEDFHVDQVTTVKVPMMKRLGMFNIQHSKKLSSWVLLMKYLGNATAIFFLPDEGKLQHLENELTHDIITKFLENEDRRSASLHLPKLSITGTYDLKSVLGQLGITKVFSNGADLSGVTEEAPLKLSKAVHKAVLTIDEKGTEAAGAMFLEAIKRSIPPEVKFNKPFVFLMIEQNTKSPLFMGKVVNPTQK | second-order rate constant of inhibition | 3930 M⁻¹ s⁻¹
A22 P1′K PCI (other, As A22 WT PCI) APSSRRDFTFDLYRALASAAPSQNIFFSPVSISMSLAMLSLGAGSSTKMQILEGLGLNLQKSSEKELHRGFQQLLQELNQPRDGFQLSLGNALFTDLVVDLQDTFVSAMKTLYLADTFPTNFRDSAGAMKQINDYVAKQTKGKIVDLLKNLDSNAVVIMVNYIFFKAKWETSFNHKGTQEQDFYVTSETVVRVPMMSREDQYHYLLDRNLSCRVVGVPYQGNATALFILPSEGKMQQVENGLSEKTLRKWLKMFKKRQLELYLPKFSIEGSYQLEKVLPSLGISNVFTSHADLSGISNHSNIQVSEMVHKAVVEVDESGTRAAAATGTIFTFRKARLNSQRLVFNRPFLMFIVDNNILFLGKVNRP | second-order rate constant of inhibition | 520 M⁻¹ s⁻¹
